tested on: Raf-1^gof intestinal tumors; assay: Luciferase screen of FDA-approved (NCI) drugs in 96-well plates, flies with Raf-1^gof intestinal tumors; format: in vivo, Drosophila; conditions: log2 of the Day 3 fold difference in luciferase relative to DMSO controls; note: test concentration or dose not given here
Where a name gives a salt, the structure may show the parent alone. Numbered stars: 1 amine (or outer) side, 2 acyl side, 3 side chain; on linkers, the order of the positions; unused ones are H or OH. Bridge positions count the residues as written; N and C are the ends. Square brackets hold non-standard residues; d marks the D form. Peptide text beside a SMILES is read from it. I, II: the chains in the order shown. Actinocin(9to1) = Cc1c2oc3c(C)ccc(C(=O)[*:1])c3nc-2c(C(=O)[*:2])c(N)c1=O; NMeV = CN[C@H](C(=O)O)C(C)C; Sar = CNCC(=O)O
Response field label: string, one of fulfilled (Log2 (fold) strictly below 0.06) or not fulfilled.

Use these answered entries as a reference point.
# Compound, Group
measured = [
    ("Cc1c2oc3c(C)ccc(C(=O)N[C@@H]4C(=O)N[C@H](C(C)C)C(=O)N5CCC[C@H]5C(=O)N(C)CC(=O)N(C)[C@@H](C(C)C)C(=O)O[C@@H]4C)c3nc-2c(C(=O)N[C@@H]2C(=O)N[C@H](C(C)C)C(=O)N3CCC[C@H]3C(=O)N(C)CC(=O)N(C)[C@@H](C(C)C)C(=O)O[C@@H]2C)c(N)c1=O [Dactinomycin] (I: T[dV]P[Sar][NMeV] / II: T[dV]P[Sar][NMeV]; ester I:1-I:C, II:1-II:C; linker I:N-II:N via Actinocin(9to1))", "fulfilled"),
    ("CN(Cc1cnc2nc(N)nc(N)c2n1)c1ccc(C(=O)N[C@@H](CCC(=O)O)C(=O)O)cc1 [Methotrexate]", "fulfilled"),
    ("O=C1[O][Pt]2([NH][C@@H]3CCCC[C@H]3[NH]2)[O]C1=O [Oxaliplatin]", "not fulfilled"),
    ("N#Cc1ccc(C(c2ccc(C#N)cc2)n2cncn2)cc1 [Letrozole]", "not fulfilled"),
    ("Cc1ccc(NC(=O)c2ccc(CN3CCN(C)CC3)cc2)cc1Nc1nccc(-c2cccnc2)n1 [Imatinib]", "fulfilled"),
    ("NCCCNCCSP(=O)(O)O [Amifostine]", "not fulfilled"),
]

Lab note: Log2 (fold) threshold 0.06. Does this compound come in strictly under it? Nc1nc2[nH]cc(CCc3ccc(C(=O)N[C@@H](CCC(=O)O)C(=O)O)cc3)c2c(=O)[nH]1 [Pemetrexed]
fulfilled

Please check: Log2 (fold) for CC/C(=C(\c1ccccc1)c1ccc(OCCN(C)C)cc1)c1ccccc1 [Tamoxifen citrate] , strictly under 0.06 or not?
fulfilled

Decide: Log2 (fold) of Nc1cccc2c1CN(C1CCC(=O)NC1=O)C2=O (stereo not drawn) [Lenalidomide] strictly below 0.06?
fulfilled

For CN(C)c1nc(N(C)C)nc(N(C)C)n1 [Altretamine] , is the recorded Log2 (fold) below the cut-off of 0.06?
fulfilled

Please state whether Log2 (fold) is below 0.06 for CC1=C(/C=C/C(C)=C/C=C/C(C)=C/C(=O)O)C(C)(C)CCC1 [Tretinoin]
fulfilled

* * *

Listing: Avg (3 + 6) of selected molecules
tested on: Raf-1^gof intestinal tumors; assay: Luciferase screen of FDA-approved (NCI) drugs in 96-well plates, flies with Raf-1^gof intestinal tumors; type: in vivo, Drosophila; settings: average of Day 3 and Day 6 fold; note: test concentration or dose not given here
Counter-ions that a name gives are not always drawn.
Respond numerically; units are fold and should not be typed.

# Molecule, Readout number
rows = [
    ("N#Cc1ccc(C(c2ccc(C#N)cc2)n2cncn2)cc1 [Letrozole]", 1.302),
    ("S=c1nc[nH]c2nc[nH]c12 [Mercaptopurine]", 0.945),
    ("Nc1ccn([C@@H]2O[C@H](CO)[C@@H](O)[C@@H]2O)c(=O)n1 [Cytarabine HCl]", 1.112),
    ("CC(=O)O[C@@]12CO[C@@H]1C[C@H](O)[C@@]1(C)C(=O)[C@H](O)C3=C(C)[C@@H](OC(=O)[C@H](O)[C@@H](NC(=O)OC(C)(C)C)c4ccccc4)C[C@@](O)([C@@H](OC(=O)c4ccccc4)[C@H]21)C3(C)C [Docetaxel]", 0.514),
    ("NCCCNCCSP(=O)(O)O [Amifostine]", 1.239),
]

So for Cc1cn(-c2cc(NC(=O)c3ccc(C)c(Nc4nccc(-c5cccnc5)n4)c3)cc(C(F)(F)F)c2)cn1 [Nilotinib] , the logged Avg (3 + 6) turned out to be 0.804

The reported Avg (3 + 6) of the molecule CC1=C(/C=C/C(C)=C/C=C/C(C)=C/C(=O)O)C(C)(C)CCC1 [Tretinoin] was 0.871

Kindly note the recorded Avg (3 + 6) for CC(C)C[C@H](NC(=O)[C@H](Cc1ccccc1)NC(=O)c1cnccn1)B(O)O [Bortezomib] , which is 0.607

// Avg (3 + 6) value for COc1nc(N)nc2c1ncn2[C@@H]1O[C@H](CO)[C@@H](O)[C@@H]1O [Nelarabine] : 1.194

molecule N[C@@H](Cc1ccc(N(CCCl)CCCl)cc1)C(=O)O [Melphalan] , Avg (3 + 6) observed: 0.939

O=C1c2c(O)ccc(O)c2C(=O)c2c(NCCNCCO)ccc(NCCNCCO)c21 [Mitoxantrone] has a reported Avg (3 + 6) of 0.883

GET /value?item= CCC1=C[C@@H]2CN(C1)Cc1c([nH]c3ccccc13)[C@@](C(=O)OC)(c1cc3c(cc1OC)N(C)[C@H]1[C@@](O)(C(=O)OC)[C@H](OC(C)=O)[C@]4(CC)C=CCN5CC[C@]31[C@@H]54)C2 [Vinorelbine tartrate] &field=Avg (3 + 6) returns 0.761

Note to self: Avg (3 + 6) recorded for Nc1nc(Cl)nc2c1ncn2[C@@H]1O[C@H](CO)[C@@H](O)[C@@H]1F [Clofarabine] was 0.868

For this molecule ( CCN(CC)CCCC(C)Nc1c2ccc(Cl)cc2nc2ccc(OC)cc12 (stereo not drawn) [Acrichine] ), measured Avg (3 + 6) is 1.046

Looking up CO[C@@]12[C@H](COC(N)=O)C3=C(C(=O)C(C)=C(N)C3=O)N1C[C@@H]1N[C@@H]12 [Mitomycin C] , I see its Avg (3 + 6) listed as 0.204
